- EXPERIMENT: NCI Yeast Anticancer Drug Screen. Data for the bub3 strain (AID 167)
- RECORDED_CONDITIONS: S. cerevisiae bub3 mutant strain, at 50.0 µM, stronger effect = higher value
The panel holds about 79,000 compounds, 15% with a hit somewhere; the sample as a whole holds those more often.
Each entry below carries its reported growth inhibition.

{"columns": ["COMPOUND", "UNIT_TEXT", "growth inhibition"],
 "data": [
  ["COc1ccc(-c2nc(C)[nH]c(=O)c2Cc2c(O)ccc3ccccc23)cc1", "%", 4.45],
  ["CCOC(=O)C(NNc1ccccc1)C(c1ccccc1)[P+](c1ccccc1)(c1ccccc1)c1ccccc1 (centres undefined)", "%", 99.4],
  ["CCCCCCCCCC[N+](C)(C)CCC[N+](C)(C)CCCCCCCCCC", "%", 62.6],
  ["CC(Nc1ccc(S(=O)(=O)Nc2ncccn2)cc1)c1ccc2cccnc2c1O (centres undefined)", "%", 99.3],
  ["CC(C)C(=O)/C=C/c1c(Cl)cccc1Cl", "%", 54.9],
  ["COc1cc(Cc2n[nH]c(=S)n2-c2ccccc2)c(S(=O)(=O)N2CCOCC2)cc1OC", "%", -32],
  ["O=c1[nH]c(Cc2ccccc2)nc2c1sc1nc3ccccc3n12", "%", -33.4],
  ["CCCCCC1OC(CCCCC)OC(CCCCC)O1 (centres undefined)", "%", -13.9],
  ["c1ccc(C2CC(c3ccc4ccccc4c3)=Nc3ccccc3S2)cc1 (centres undefined)", "%", 96.5]
]}
